System: pepsin
Experiment: Time required for 50% degradation by pepsin
Format: ADME
Details: read-out: Time (converted)
Starred links: 1 amine or outer side, 2 acyl side, 3 side chain; linkers in the order of their positions; H or OH if unused. Non-standard residues stand in square brackets, D forms with d. Residues, ends and D or L forms follow the SMILES beside them. *: point of attachment. X2 = O=C(CCC(=O)[*:2])[C@H](Cc1ccccc1)N[*:1]; X1 = O=C(CCC(=O)[*:2])[C@@H]1CCCN1[*:1]; Cyclobutanecarbonyl = O=C(C1CCC1)*; Nle = CCCC[C@H](N)C(=O)O
Experimental readout: half-life (h)
Field: numeric (h). Do not append units.

For reference, reported half-life for CCCC[C@H](NC(=O)[C@@H]1CCCN1C(=O)CCC(=O)[C@@H]1CCCN1C(=O)[C@H](Cc1ccc(O)cc1)NC(=O)C1CCC1)C(=O)N[C@@H](Cc1ccccc1)C(=O)CCC(=O)N1CCC[C@H]1C(=O)O (Cyclobutanecarbonyl-Y[X1]P[Nle][X2]P-OH) stands at 3

----------
Assay: Time required for 50% degradation in rat stomach homogenate
Type: ADME
Conditions: read-out: Time (converted)
Starred links: 1 amine or outer side, 2 acyl side, 3 side chain; linkers in the order of their positions; H or OH if unused. Non-standard residues stand in square brackets, D forms with d. Residues, ends and D or L forms follow the SMILES beside them. *: point of attachment. X2 = O=C(CCC(=O)[*:2])[C@H](Cc1ccccc1)N[*:1]; X1 = O=C(CCC(=O)[*:2])[C@@H]1CCCN1[*:1]; Cyclobutanecarbonyl = O=C(C1CCC1)*; Nle = CCCC[C@H](N)C(=O)O
Experimental readout: half-life (h)
Field: numeric (h). Do not append units.

For reference, reported half-life for CCCC[C@H](NC(=O)[C@@H]1CCCN1C(=O)CCC(=O)[C@@H]1CCCN1C(=O)[C@H](Cc1ccc(O)cc1)NC(=O)C1CCC1)C(=O)N[C@@H](Cc1ccccc1)C(=O)CCC(=O)N1CCC[C@H]1C(=O)O (Cyclobutanecarbonyl-Y[X1]P[Nle][X2]P-OH) stands at 5

----------
Tested on: trypsin
Assay: Time required for 50% degradation by trypsin
Format: ADME
Details: read-out: Time
Starred links: 1 amine or outer side, 2 acyl side, 3 side chain; linkers in the order of their positions; H or OH if unused. Non-standard residues stand in square brackets, D forms with d. Residues, ends and D or L forms follow the SMILES beside them. *: point of attachment. X2 = O=C(CCC(=O)[*:2])[C@H](Cc1ccccc1)N[*:1]; X1 = O=C(CCC(=O)[*:2])[C@@H]1CCCN1[*:1]; Cyclobutanecarbonyl = O=C(C1CCC1)*
Experimental readout: half-life

Molecule | half-life
NCCCC[C@H](NC(=O)[C@@H]1CCCN1C(=O)CCC(=O)[C@@H]1CCCN1C(=O)[C@H](Cc1ccc(O)cc1)NC(=O)C1CCC1)C(=O)N[C@@H](Cc1ccccc1)C(=O)CCC(=O)N1CCC[C@H]1C(=O)O (Cyclobutanecarbonyl-Y[X1]PK[X2]P-OH) | 5 min

For reference, reported half-life for NCCCC[C@H](NC(=O)[C@@H]1CCCN1C(=O)CNC(=O)[C@@H]1CCCN1C(=O)[C@H](Cc1ccc(O)cc1)NC(=O)C1CCC1)C(=O)N[C@@H](Cc1ccccc1)C(=O)NCC(=O)N1CCC[C@H]1C(=O)O (Cyclobutanecarbonyl-YPGPKFGP-OH) stands at < 5 min

// provenance: ChEMBL document CHEMBL1124054
